tested on: MS2 coat protein; assay: apparent KD of MS2 coat protein; designed switch direction (-1 OFF switch, 1 ON switch): -1; higher = weaker reporter binding; settings: input ligand: none
yes (1) means recorded apparent KD of MS2 coat protein is 30 nM or above; no (0) means it is below 30 nM.

{"columns": ["record.sequence", "system.tested", "category"],
 "data": [
  ["AGUUCACAUGAGGAUCACCCAUGUGAGGAUAUGGUUUCGCUGGCCGUAGCCAGUGGAACCAGAAGGCGCGUGAU [Mat - Exclusion 1 - JL Mod - D15] (Eterna round: R97, puzzle: Exclusion 1)", "MS2 coat protein", "yes (1)"],
  ["GUAGAGUGAGGAUAUACGAGAUCGAAAGAUCGGCGAUCCAAACAUGAGGAUCACCCAUGUAGAAGGCACUCUAC [Eli x2 4.006] (Eterna round: R97, puzzle: Exclusion 2)", "MS2 coat protein", "yes (1)"],
  ["GCGCAAACGCCAAAAGGCGAAACAACAUGAGGAUCACCCAUGUAGGAUAUCGAUUGCUUUGCAGUCGAGAAGGGCAUAAUGCGC [JL ENG3 3.80 Mod 4] (Eterna round: R96, puzzle: Exclusion NG 3)", "MS2 coat protein", "no (0)"],
  ["AGUGCGUCAGGAUAUUCUAUUAAUUACAUGAGGAUCACCCAUGUGAAUGGACAAGGGUGUGAAGAAGGGACGUGCG [Omei Ex5 A17g] (Eterna round: R97, puzzle: Exclusion 5)", "MS2 coat protein", "yes (1)"],
  ["UUCCGACAUGAGGAUCACCCAUGUGAGGAUAUGUUCGAAAGCUAAGACUGCGACAGGAAUAGAAGGCGCGGGUA [Eternabot (Original) Solution 17] (Eterna round: R97, puzzle: Exclusion 1)", "MS2 coat protein", "no (0)"],
  ["CAGUACUGAGGAUAUACAUGAGGAUCACCCAUGUCUUAAAAGUAGGAUACUACUAUUAGUAGAAGGCAGUACUG [Fiskers Ex 3 828 mod 24] (Eterna round: R96, puzzle: Exclusion 3)", "MS2 coat protein", "no (0)"],
  ["CCUUGACAUGAGGAUCACCCAUGUGAGGAUAUAGAAUACAUCAUACACUGACCUCCUUCUAGAAGGCACAUCUC [1986#2] (Eterna round: R97, puzzle: Exclusion 1)", "MS2 coat protein", "no (0)"],
  ["AGCGAGGCAGGAUAUACAUGAGGAUCACCCAUGUACUUGUAUGGCGUGGAACAUCGUGGUAGAAGGGCCGUGCU [EX3 #81] (Eterna round: R97, puzzle: Exclusion 3)", "MS2 coat protein", "yes (1)"],
  ["AUUGGGCAAGCAUGAUCCCACAUGAGGAUCACCCAUGUGUUCGUCUUAUAGGCUGCUGAGGCUUUUGCCUCGGUGGC [LRO Sensor-off var1-02 loose mod of D91 from Mat747] (Eterna round: R97, puzzle: Sensor, turn-off variant 1)", "MS2 coat protein", "yes (1)"],
  ["AGCCACAGAGGAUAUACAUACAUCCAGUAGUAGAGUCUACUACAUGAGGAUCACCCAUGUAGAAGGCUGUGGCA [Omei Ex2 BD B16] (Eterna round: R97, puzzle: Exclusion 2)", "MS2 coat protein", "yes (1)"],
  ["CCGCUCCGUGUAGGAUAUCGCUGUACCCUGCGGCGAGAAGGACAUGAGGAUCACCCAUGUAUGUUAUUAUCACGCGUGGCGCAC [Design 72] (Eterna round: R96, puzzle: Exclusion NG 1)", "MS2 coat protein", "no (0)"],
  ["UGAUCUUUUGUUAGGAUAUGCUGUUUUUUUUUUCAGCAGAAGGGACAUGAGGAUCACCCAUGUUUUGUCAUAAA [Magic-06] (Eterna round: R96, puzzle: Brourd's mod of Exclusion 4)", "MS2 coat protein", "yes (1)"],
  ["AGCUGUGGCCGAGGAUAUCACAUGAGGAUCACCCAUGUAUAUGAUUAGGCCUGGUAACAGGCUCGUGAGAAGGCGGUCUCAGCA [Eli eng2 - 012] (Eterna round: R96, puzzle: Exclusion NG 2)", "MS2 coat protein", "yes (1)"],
  ["AGAUGCUCAAGUCGACAUGAGGAUCACCCAUGUACAGUUAAUGAGGAUAUCCGAGAUAAAUAAUAGGAGAAGGCGUGAACAUGA [Ex NG3 #8] (Eterna round: R96, puzzle: Exclusion NG 3)", "MS2 coat protein", "yes (1)"],
  ["UCUCGCGUCGAGGAUAUAUCGUGUAAGUGCGCGAUAGAAGGCGACACAUGAGGAUCACCCAUGUAGGGCCGAAC [Eternabot (Original) Solution 14] (Eterna round: R97, puzzle: Exclusion 6)", "MS2 coat protein", "no (0)"]
]}
